Assay: HepG2 cytotoxicity assay
Conditions: human, HepG2 cells
Catalogue of IC50 at 48 h values

# annotated cases, reported IC50 at 48 h shown
                                   compound   result
0  NC(=O)c1ccccc1Nc1nc(Nc2cccc(N3CCN(CCO)CC3)c2)ncc1Cl  41.7 µM
1  CCC1CN2CCc3cc(OC)c(OC)cc3C2CC1CC1NCCc2cc(OC)c(OC)cc21 (stereo not shown)    24 µM
2  CC[C@H]1CN2CCc3cc(OC)c(OC)cc3[C@@H]2C[C@@H]1C[C@H]1NCCc2cc(OC)c(OC)cc21  1.55 µM

Please list IC50 at 48 h recorded for the compound COc1ccc2ncc(F)c(CCN3CCC(NC(=O)c4ccc5c(n4)NC(=O)CS5)C(O)C3)c2n1 (stereo not shown)
42.2 µM
